Data provenance: patent US11242337B2

# MEASUREMENT_TARGET: NHE3 (Homo sapiens)
# Construct: expressed in transfected cells
# Sequence (P48764 26-834): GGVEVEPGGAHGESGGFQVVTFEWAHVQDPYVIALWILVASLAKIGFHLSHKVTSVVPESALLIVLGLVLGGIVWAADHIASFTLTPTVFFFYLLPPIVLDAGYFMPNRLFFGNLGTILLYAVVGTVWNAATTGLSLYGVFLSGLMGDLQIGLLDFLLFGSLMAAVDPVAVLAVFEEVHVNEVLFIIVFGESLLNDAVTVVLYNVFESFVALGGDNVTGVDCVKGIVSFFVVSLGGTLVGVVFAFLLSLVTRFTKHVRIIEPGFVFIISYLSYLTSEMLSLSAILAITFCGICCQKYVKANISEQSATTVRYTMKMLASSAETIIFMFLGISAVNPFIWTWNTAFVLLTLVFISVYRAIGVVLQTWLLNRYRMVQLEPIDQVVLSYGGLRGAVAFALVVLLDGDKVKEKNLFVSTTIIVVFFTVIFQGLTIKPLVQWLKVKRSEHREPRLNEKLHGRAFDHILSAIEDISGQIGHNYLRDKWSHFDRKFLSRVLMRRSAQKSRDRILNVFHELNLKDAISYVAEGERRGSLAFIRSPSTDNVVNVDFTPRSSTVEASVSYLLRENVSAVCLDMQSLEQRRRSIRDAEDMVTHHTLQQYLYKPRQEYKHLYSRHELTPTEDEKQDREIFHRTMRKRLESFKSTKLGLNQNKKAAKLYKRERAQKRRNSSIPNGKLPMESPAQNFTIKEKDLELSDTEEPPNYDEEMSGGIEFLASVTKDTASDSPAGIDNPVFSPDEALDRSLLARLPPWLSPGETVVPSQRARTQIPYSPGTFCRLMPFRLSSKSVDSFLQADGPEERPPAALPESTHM
# Sequence (Q99653 2-195 partner limits assumed): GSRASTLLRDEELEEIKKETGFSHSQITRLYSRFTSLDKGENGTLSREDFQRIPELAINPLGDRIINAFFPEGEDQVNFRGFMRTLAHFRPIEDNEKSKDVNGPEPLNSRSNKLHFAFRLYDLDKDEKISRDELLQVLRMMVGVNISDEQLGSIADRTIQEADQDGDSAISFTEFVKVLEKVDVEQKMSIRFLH
# TEST_DETAILS: Cell-based assay of NHE-3 activity (persistent inhibition), human
# TEST_CONDITIONS: human Persistence, 60 min incubation then washout
ENDPOINT_LABEL: % inhibition

- COMPOUND: "CN(C)[C@@H]1CCCN([C@H]2Cc3c(C#N)cc(Cl)cc3[C@@H]2Oc2ccc(S(=O)(=O)NCCOCCOCCNC(=O)NCCCCNC(=O)NCCOCCOCCNS(=O)(=O)c3ccc(O[C@H]4c5cc(Cl)cc(C#N)c5C[C@@H]4N4CCC[C@@H](N(C)C)C4)cc3)cc2)C1 [Example 121]"
  % inhibition: "A (NHE3 < 40%)"
- COMPOUND: "Cc1cc(S(=O)(=O)N2CC[C@H](COCCOCCNC(=O)NCCCCNC(=O)NCCOCCOC[C@H]3CCN(S(=O)(=O)c4ccc(O[C@H]5c6cc(Cl)cc(Cl)c6C[C@@H]5N(C)C)c(C)c4)C3)C2)ccc1O[C@H]1c2cc(Cl)cc(Cl)c2C[C@@H]1N(C)C [Example 44]"
  % inhibition: "C (>70%)"
- COMPOUND: "Cc1cc(S(=O)(=O)N2CC[C@H](COc3ccnc(CNC(=O)NCCCCNC(=O)NCc4cc(OC[C@H]5CCN(S(=O)(=O)c6ccc(O[C@H]7c8cc(Cl)cc(Cl)c8C[C@@H]7N(C)C)c(C)c6)C5)ccn4)c3)C2)ccc1O[C@H]1c2cc(Cl)cc(Cl)c2C[C@@H]1N(C)C [Example 48]"
  % inhibition: "C (>70%)"
- COMPOUND: "N#Cc1cc(Cl)cc2c1C[C@H](N1CCNCC1)[C@H]2Oc1ccc(S(=O)(=O)N[C@@H]2CCN(C(=O)CCCNC(=O)NCCCCNC(=O)NCCCC(=O)N3CC[C@@H](NS(=O)(=O)c4ccc(O[C@H]5c6cc(Cl)cc(C#N)c6C[C@@H]5N5CCNCC5)cc4)C3)C2)cc1 [Example 142]"
  % inhibition: "C (>70%)"
- COMPOUND: "N#Cc1cc(Cl)cc2c1C[C@H](N1CCNCC1)[C@H]2Oc1ccc(S(=O)(=O)NC2CCN(CCOCCNC(=O)NCCCCNC(=O)NCCOCCN3CCC(NS(=O)(=O)c4ccc(O[C@H]5c6cc(Cl)cc(C#N)c6C[C@@H]5N5CCNCC5)cc4)CC3)CC2)cc1 [Example 123]"
  % inhibition: "C (>70%)"
- COMPOUND: "COc1cc(Cl)cc2c1C[C@H](N1CCC[C@@H](N)C1)[C@H]2Oc1ccc(S(=O)(=O)NCCOCCOCCNC(=O)NCCCCNC(=O)NCCOCCOCCNS(=O)(=O)c2ccc(O[C@H]3c4cc(Cl)cc(OC)c4C[C@@H]3N3CCC[C@@H](N)C3)cc2)cc1 [Example 5]"
  % inhibition: "C (>70%)"
- COMPOUND: "N[C@@H]1CCCN([C@H]2Cc3c(Cl)cc(Cl)cc3[C@@H]2Oc2ccc(S(=O)(=O)N3CCC(OCCOCCNC(=O)NCCCCNC(=O)NCCOCCOC4CCN(S(=O)(=O)c5ccc(O[C@H]6c7cc(Cl)cc(Cl)c7C[C@@H]6N6CCC[C@@H](N)C6)cc5)CC4)CC3)cc2)C1 [Example 95]"
  % inhibition: "C (>70%)"
- COMPOUND: "O=C(NCCCCNC(=O)NCCOCCOCCNS(=O)(=O)c1ccc(O[C@H]2c3cc(Cl)cc(Cl)c3C[C@@H]2N2CCNCC2)cc1)NCCOCCOCCNS(=O)(=O)c1ccc(O[C@H]2c3cc(Cl)cc(Cl)c3C[C@@H]2N2CCNCC2)cc1 [Example 31]"
  % inhibition: "C (>70%)"

Consider the following items and state reported % inhibition for each.
1. CN(C)[C@H]1Cc2c(cc(Cl)cc2C(F)(F)F)[C@@H]1Oc1ccc(S(=O)(=O)NCCOCCOCCNC(=O)NCCCCNC(=O)NCCOCCOCCNS(=O)(=O)c2ccc(O[C@H]3c4cc(Cl)cc(C(F)(F)F)c4C[C@@H]3N(C)C)cc2)cc1 [Example 13]
2. Cc1cc(S(=O)(=O)N[C@H]2CCN(CCOCCNC(=O)NCCCCNC(=O)NCCOCCN3CC[C@H](NS(=O)(=O)c4ccc(O[C@H]5c6cc(Cl)cc(Cl)c6C[C@@H]5N(C)C)c(C)c4)C3)C2)ccc1O[C@H]1c2cc(Cl)cc(Cl)c2C[C@@H]1N(C)C [Example 52]
3. N[C@@H]1CCCN([C@H]2Cc3c(Cl)cc(Cl)cc3[C@@H]2Oc2ccc(S(=O)(=O)NCCOCCOCCNC(=O)NCCCCNC(=O)NCCOCCOCCNS(=O)(=O)c3ccc(O[C@H]4c5cc(Cl)cc(Cl)c5C[C@@H]4N4CCC[C@@H](N)C4)cc3F)c(F)c2)C1 [Example 103]
4. Cc1cc(S(=O)(=O)N[C@H]2CCN(CCOCCNC(=O)NCCCCNC(=O)NCCOCCN3CC[C@H](NS(=O)(=O)c4ccc(O[C@H]5c6cc(Cl)cc(C#N)c6C[C@@H]5N(C)C)c(C)c4)C3)C2)ccc1O[C@H]1c2cc(Cl)cc(C#N)c2C[C@@H]1N(C)C [Example 54]
5. Cc1cc(S(=O)(=O)N2CC[C@@H](COc3ccnc(CNC(=O)NCCCCNC(=O)NCc4cc(OC[C@@H]5CCN(S(=O)(=O)c6ccc(O[C@H]7c8cc(Cl)cc(C#N)c8C[C@@H]7N(C)C)c(C)c6)C5)ccn4)c3)C2)ccc1O[C@H]1c2cc(Cl)cc(C#N)c2C[C@@H]1N(C)C [Example 51]

A (NHE3 < 40%)
C (>70%)
C (>70%)
B (40-70%)
B (40-70%)

Could you tell me % inhibition for each of these compounds? They are listed below.
1. N[C@@H]1CCCN([C@H]2Cc3c(Cl)cc(Cl)cc3[C@@H]2Oc2ccc(S(=O)(=O)NCCOCCOCCNC(=O)NCCCCNC(=O)NCCOCCOCCNS(=O)(=O)c3ccc(O[C@H]4c5cc(Cl)cc(Cl)c5C[C@@H]4N4CCC[C@@H](N)C4)cc3Cl)c(Cl)c2)C1 [Example 104]
2. Cc1cc(S(=O)(=O)NCCOCCOCCNC(=O)NCCCCNC(=O)NCCOCCOCCNS(=O)(=O)c2ccc(O[C@H]3c4cc(Cl)cc(Cl)c4C[C@@H]3N3CCC[C@@H](N)C3)c(C)c2)ccc1O[C@H]1c2cc(Cl)cc(Cl)c2C[C@@H]1N1CCC[C@@H](N)C1 [Example 1]

1. C (>70%)
2. B (40-70%)

* * *

# MEASUREMENT_TARGET: NHE3 (Homo sapiens)
# Construct: expressed in transfected cells
# TEST_DETAILS: persistent inhibition of NHE3 in the cell-based assay of example 181 (4-chloro vs 4-cyano pairs)
# TEST_CONDITIONS: cell-based assay of example 181, after washout; read-out: pIC50 (persistent) (converted)
I'd appreciate it if you could supply IC50 values for the items below.
One number for each entry, in nM.

For orientation, consider the following solved cases.
- CHEMICAL_STRING: "O=C(NCCCCNC(=O)NCCOCCOCCNS(=O)(=O)c1ccc(O[C@H]2c3cc(Cl)cc(Cl)c3C[C@@H]2N2CCNCC2)cc1)NCCOCCOCCNS(=O)(=O)c1ccc(O[C@H]2c3cc(Cl)cc(Cl)c3C[C@@H]2N2CCNCC2)cc1"
  ENDPOINT_LABEL: "IC50"
  MEASUREMENT_UNITS: "nM"
  MEAS_VALUE: 6.31
- CHEMICAL_STRING: "O=C(NCCCCNC(=O)NCCOCCOCCNS(=O)(=O)c1ccc(O[C@H]2c3cc(Cl)cc(Cl)c3C[C@@H]2N2CCNCC2)c(F)c1)NCCOCCOCCNS(=O)(=O)c1ccc(O[C@H]2c3cc(Cl)cc(Cl)c3C[C@@H]2N2CCNCC2)c(F)c1"
  ENDPOINT_LABEL: "IC50"
  MEASUREMENT_UNITS: "nM"
  MEAS_VALUE: 3.98
- CHEMICAL_STRING: "Cc1cc(S(=O)(=O)NCCOCCOCCNC(=O)NCCCCNC(=O)NCCOCCOCCNS(=O)(=O)c2ccc(O[C@H]3c4cc(Cl)cc(C#N)c4C[C@@H]3N3CCNCC3)c(C)c2)ccc1O[C@H]1c2cc(Cl)cc(C#N)c2C[C@@H]1N1CCNCC1"
  ENDPOINT_LABEL: "IC50"
  MEASUREMENT_UNITS: "nM"
  MEAS_VALUE: 2.51

// next entry
Fill in: IC50 of Cc1cc(S(=O)(=O)NCCOCCOCCNC(=O)NCCCCNC(=O)NCCOCCOCCNS(=O)(=O)c2ccc(O[C@H]3c4cc(Cl)cc(Cl)c4C[C@@H]3N3CCNCC3)c(C)c2)ccc1O[C@H]1c2cc(Cl)cc(Cl)c2C[C@@H]1N1CCNCC1 is ___
20
